The reported measurements were obtained from ChEMBL document CHEMBL5360592.

Test: Cytotoxicity against mouse Hepa1-6 cells assessed as inhibition of cell growth incubated for 24 hrs by MTT assay
Assay type: functional, cell-based
Settings: Hepa1-6, 24 h
pIC50: −log10 of the molar value.

smiles_notation	reported_relation	pIC50
COC(=O)[C@@]1(C)[C@@H]2CC[C@]3(C)[C@H]([C@@H]4O[C@H](c5ccc(O)c(OC)c5)[C@@H](C)OC4=C4[C@@H]5[C@@H](C)[C@H](C)CC[C@]5(C)CC[C@]43C)[C@@]2(C)CC[C@@H]1O	<	5.00
COC(=O)[C@@]1(C)[C@@H]2CC[C@]3(C)[C@H]([C@@H]4O[C@H](C)[C@@H](c5ccc(O)c(OC)c5)OC4=C4[C@@H]5[C@@H](C)[C@H](C)CC[C@]5(C)CC[C@]43C)[C@@]2(C)CC[C@@H]1O	<	5.00
COc1cc([C@H]2OC3=C4[C@@H]5[C@@H](C)[C@H](C)CC[C@]5(C)CC[C@@]4(C)[C@]4(C)CC[C@H]5C(C)(C)[C@@H](O)CC[C@]5(C)[C@H]4[C@@H]3O[C@@H]2CO)ccc1O	=	5.57
COC(=O)[C@@]1(C)[C@@H]2CC[C@]3(C)[C@H]([C@@H]4O[C@@H](c5ccc(O)c(OC)c5)[C@@H](C)OC4=C4[C@@H]5[C@@H](C)[C@H](C)CC[C@]5(C)CC[C@]43C)[C@@]2(C)CC[C@@H]1O	=	5.39
COC(=O)[C@]1(C)[C@@H]2CC[C@]3(C)[C@H]([C@@H]4O[C@H](CO)[C@@H](c5ccc(O)c(OC)c5)OC4=C4[C@@H]5[C@@H](C)[C@H](C)CC[C@]5(C)CC[C@]43C)[C@@]2(C)CC[C@@H]1O	<	5.00
COc1cc([C@H]2O[C@@H]3C(=C4[C@@H]5[C@@H](C)[C@H](C)CC[C@]5(C)CC[C@@]4(C)[C@]4(C)CC[C@H]5C(C)(C)[C@@H](O)CC[C@]5(C)[C@@H]34)O[C@@H]2CO)ccc1O	=	5.33

* * *

Test system: MDA-MB-231
Test: Cytotoxicity against human MDA-MB-231 cells assessed as inhibition of cell growth incubated for 24 hrs by MTT assay
Format: functional, cell-based
Conditions: MDA-MB-231, 24 h
Recorded IC50 for the following compounds

smiles_notation	reported_relation	IC50 / µM
COC(=O)[C@]1(C)[C@@H]2CC[C@]3(C)[C@H]([C@@H]4O[C@H](CO)[C@@H](c5ccc(O)c(OC)c5)OC4=C4[C@@H]5[C@@H](C)[C@H](C)CC[C@]5(C)CC[C@]43C)[C@@]2(C)CC[C@@H]1O	>	10
COc1cc([C@H]2OC3=C4[C@@H]5[C@@H](C)[C@H](C)CC[C@]5(C)CC[C@@]4(C)[C@]4(C)CC[C@H]5C(C)(C)[C@@H](O)CC[C@]5(C)[C@H]4[C@@H]3O[C@@H]2CO)ccc1O	=	2.7
COC(=O)[C@@]1(C)[C@@H]2CC[C@]3(C)[C@H]([C@@H]4O[C@@H](c5ccc(O)c(OC)c5)[C@@H](C)OC4=C4[C@@H]5[C@@H](C)[C@H](C)CC[C@]5(C)CC[C@]43C)[C@@]2(C)CC[C@@H]1O	>	10
COc1cc([C@H]2O[C@@H]3C(=C4[C@@H]5[C@@H](C)[C@H](C)CC[C@]5(C)CC[C@@]4(C)[C@]4(C)CC[C@H]5C(C)(C)[C@@H](O)CC[C@]5(C)[C@@H]34)O[C@@H]2CO)ccc1O	=	2.2
COC(=O)[C@@]1(C)[C@@H]2CC[C@]3(C)[C@H]([C@@H]4O[C@H](C)[C@@H](c5ccc(O)c(OC)c5)OC4=C4[C@@H]5[C@@H](C)[C@H](C)CC[C@]5(C)CC[C@]43C)[C@@]2(C)CC[C@@H]1O	=	9.3
COC(=O)[C@@]1(C)[C@@H]2CC[C@]3(C)[C@H]([C@@H]4O[C@H](c5ccc(O)c(OC)c5)[C@@H](C)OC4=C4[C@@H]5[C@@H](C)[C@H](C)CC[C@]5(C)CC[C@]43C)[C@@]2(C)CC[C@@H]1O	=	4.9
